Reference source: paper PMC3642127

# subject_of_test: T1, TRBP-ΔdsRBD3 (human, UniProt Q15633 1-292)
# T1 sequence: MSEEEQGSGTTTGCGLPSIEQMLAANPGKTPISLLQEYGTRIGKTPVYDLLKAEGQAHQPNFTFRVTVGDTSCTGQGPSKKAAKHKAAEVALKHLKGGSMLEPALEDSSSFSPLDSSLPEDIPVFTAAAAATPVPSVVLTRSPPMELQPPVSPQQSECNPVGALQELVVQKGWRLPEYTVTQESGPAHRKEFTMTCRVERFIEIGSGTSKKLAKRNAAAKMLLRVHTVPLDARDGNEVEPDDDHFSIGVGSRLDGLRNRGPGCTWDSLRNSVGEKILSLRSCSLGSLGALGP
# measurement_notes: EMSA; complex 1; EMSA: 20 mM Tris pH 7.5, 150 mM NaCl, 2 mM EDTA, 1 mM 2-mercaptoethanol, 1 mM DTT, 50 ng/ul salmon sperm DNA, 0.4 U/ul RNasin, 0.5 nM 32P-siRNA, 30 min on ice
# condition_parameters: protein: recombinant; tags: N-His6;C-myc; label: 32P guide strand; 2 nt 3' overhangs
Would you mind telling me the reported Kd of each entry?
One number for each entry, in nM.

>>> recorded_number("siLuc-36 (dsRNA) RNA 1: UCUUCCAGCGGAUAGAAUGGC RNA 2: CAUUCUAUCCGCUGGAAGAUG")
5

Could you now look at the following binder, please?
Query: Give recorded Kd. siLuc2-153 (dsRNA) RNA 1: UCGAAGUAUUCCGCGUACGUG RNA 2: CGUACGCGGAAUACUUCGAUU
Response: 12
